target: Cdk2(N272C) (C177A) (Homo sapiens, UniProt P24941, C177A/N272C); construct: poly-histidine; made in house; host or cells: E. coli; assay: Kinetic thiol consumption assay with Cdk2 mutant N272C; assay type: binding; settings: Protein: Cdk2; cysteine position N272C; additional mutation C177A; in h^-1
Here the recorded Rate constant with Cdk2 N272C is given for each entry.
Keep the answer to the number alone.

Illustrative cases are given below, each with its answer.
INSERT INTO assay_data (compound, readoutkind, measuredvalue) VALUES
  ('C=CC(=O)NCC1(NC(=O)OC(C)(C)C)CCCCC1', 'Rate constant with Cdk2 N272C', 0.01321),
  ('C=CC(=O)N1CC2CN(Cc3ccccc3)CC2C1 (stereo not shown)', 'Rate constant with Cdk2 N272C', 0.005695),
  ('C=CC(=O)N1CC(CCN2CCCC2=O)c2ccccc21 (stereo not shown)', 'Rate constant with Cdk2 N272C', 0.2038),
  ('C=CC(=O)NC1C[C@@H](C(=C)C)CC=C1C (stereo partly shown)', 'Rate constant with Cdk2 N272C', 0.006635),
  ('C=CC(=O)Nc1cccc(C(=O)c2ccccc2)c1', 'Rate constant with Cdk2 N272C', 0.004522);

Rate constant with Cdk2 N272C lookup needed for C=CC(=O)NC1CC2CC1C1CCCC21 (stereo not shown) , thanks.
0.001525

Rate constant with Cdk2 N272C lookup needed for C=CC(=O)N1CCN(c2cc(N3CCOCC3)ncn2)CC1 , thanks.
0.002721

Rate constant with Cdk2 N272C lookup needed for C=CC(=O)N(CCCN1CCOCC1)Cc1ccncc1 , thanks.
0.004987

Rate constant with Cdk2 N272C lookup needed for C=CC(=O)NCC1CN(C2CC2)CCO1 (stereo not shown) , thanks.
0.006696

Rate constant with Cdk2 N272C lookup needed for C=CC(=O)NC1(C2CC2)CC1 , thanks.
0.002048

Rate constant with Cdk2 N272C lookup needed for C=CC(=O)Nc1nc2cc3c(cc2s1)OC(F)(F)O3 , thanks.
0.006229

Rate constant with Cdk2 N272C lookup needed for C=CC(=O)N(C)C1CC(OCC)C12CCC2 (stereo not shown) , thanks.
0.01029

Rate constant with Cdk2 N272C lookup needed for C=CC(=O)Nc1cccc(-c2cc3ccccc3[nH]2)c1 , thanks.
0.009773

Rate constant with Cdk2 N272C lookup needed for C=CC(=O)N1CCCc2cc(C(=O)OC)ccc21 , thanks.
0.03091

---

biological target: Cdk2(N272C) (C177A) (Homo sapiens, UniProt P24941, C177A/N272C); construct: poly-histidine; made in house; host or cells: E. coli; assay: Kinetic thiol consumption assay with Cdk2 mutant N272C; type: binding; set-up: key: rate constant with Cdk2 ÷ rate constant with model thiol (fold); conditions: Cdk2 N272, additional mutation C177A
So basically, if Rate enhancement, Cdk2 N272 comes in under 0.4 it's YES, and if it's 0.4 or more it's NO.

The examples below pair each entry with its known result.
INSERT INTO results (compound, categorylabel) VALUES
  ('C=CC(=O)NC1c2ccccc2Oc2ccccc21 [CA-171]', 'NO'),
  ('C=CC(=O)NCC1(NC(=O)OC(C)(C)C)CCCCC1 [EL-1143]', 'NO'),
  ('O=C(CCl)N1CCCCCC1 [EN011]', 'YES'),
  ('C=CC(=O)NC1CCN(Cc2ccccc2)CC1 [BN-78]', 'NO'),
  ('C=CC(=O)N1CCn2c(Cc3ccccc3)nnc2C1 [CA-092]', 'NO');

Take the compound C=CC(=O)N1CCCN2C(=O)CCC12c1ccc(OC)cc1 (centres unmarked) [EL-1168] and say whether its Rate enhancement, Cdk2 N272 is less than 0.4.
NO

Take the compound C=CC(=O)N(C1CC1)C1CCCCC1C1CCCCC1 (centres unmarked) [CA-081/240] and say whether its Rate enhancement, Cdk2 N272 is less than 0.4.
NO

Take the compound C=CC(=O)N1CCCCCC1c1cccnc1 (centres unmarked) [EL-1059] and say whether its Rate enhancement, Cdk2 N272 is less than 0.4.
YES

---

molecular target: Cdk2(N272C) (C177A) (Homo sapiens, UniProt P24941, C177A/N272C); construct: poly-histidine; made in house; host or cells: E. coli; test: Kinetic thiol consumption assay with Cdk2 mutant N272C; assay type: binding; set-up: key: rate constant with Cdk2 ÷ rate constant with model thiol (fold); settings: Cdk2 N272, additional mutation C177A
readoutKind: Rate enhancement, Cdk2 N272
Keep the answer to the number alone.

INSERT INTO results (compound, readoutkind, measuredvalue) VALUES
  ('C=CC(=O)NC1(c2noc(C3CC3)n2)CCCC1 [CA-044]', 'Rate enhancement, Cdk2 N272', 0),
  ('C=CC(=O)Nc1[nH]nc(C2CC2)c1-c1ccc2c(c1)OCO2 [CA-041]', 'Rate enhancement, Cdk2 N272', 0.008585),
  ('C=CC(=O)N(c1cccc2ncccc12)C1CCC1 [CA-032/228]', 'Rate enhancement, Cdk2 N272', 3.007);

Rate enhancement, Cdk2 N272 lookup needed for C#CCN1CCCN(C(=O)C=C)CC1 [CA-196] , thanks.
0.8296

Rate enhancement, Cdk2 N272 lookup needed for C=CC(=O)Nc1cccc2ncccc12 [CA-012] , thanks.
0.4189

Rate enhancement, Cdk2 N272 lookup needed for C=CC(=O)N1C(C(=O)c2ccccc2)C1c1ccccc1 (stereo not shown) [CA-53] , thanks.
1.415

Rate enhancement, Cdk2 N272 lookup needed for C=CC(=O)N1CCCc2sccc2C1 [CA-034] , thanks.
0.7223

Rate enhancement, Cdk2 N272 lookup needed for C=CC(=O)N1CC(OCCN(CC)CC)C1 [CA-145] , thanks.
1.155

Rate enhancement, Cdk2 N272 lookup needed for C=CC(=O)N1CCN(C(=O)OC(C)(C)C)CC1 [CA-029] , thanks.
0.2719

Rate enhancement, Cdk2 N272 lookup needed for C=CC(=O)Nc1ccccc1C(=O)c1ccccc1 [EL-1004] , thanks.
0.4117

Rate enhancement, Cdk2 N272 lookup needed for C=CC(=O)NC(C)c1cc(OC)c(OC)c(OC)c1 (stereo not shown) [EL-1101] , thanks.
0.6801

---

Here the recorded Rate enhancement, Cdk2 F80C is given for each entry.
target: Cdk2(C177A, F80C) (Homo sapiens, UniProt P24941, C177A/F80C); construct: poly-histidine; made in house; host or cells: E. coli; assay: Kinetic thiol consumption assay with Cdk2 mutant F80C, incl. kobs versus concentration (Kd, k2); type: binding; set-up: key: Cdk2 rate constant divided by model-thiol rate constant; details: Cdk2 F80C, additional mutation C177A
Keep the answer to the number alone.

Illustrative cases are given below, each with its answer.
INSERT INTO assay_data (compound, readoutkind, measuredvalue) VALUES
  ('C=CC(=O)N1CCCCCC1c1ccc(N(C)C)cc1 (centres unmarked)', 'Rate enhancement, Cdk2 F80C', 0.7204),
  ('C=CC(=O)NCC1CN(C2CC2)CCO1 (centres unmarked)', 'Rate enhancement, Cdk2 F80C', 0),
  ('C=CC(=O)Nc1ccccc1N1CCOCC1', 'Rate enhancement, Cdk2 F80C', 1.494),
  ('C=CC(=O)NCCc1c[nH]c2ccccc12', 'Rate enhancement, Cdk2 F80C', 3.249),
  ('C=CC(=O)NC1(C(N)=O)CCCCC1', 'Rate enhancement, Cdk2 F80C', 0.5052),
  ('C=CC(=O)N1CCC2CCC(C1)N2C (centres unmarked)', 'Rate enhancement, Cdk2 F80C', 0.1014),
  ('C=CC(=O)Nc1nc2c(s1)CCCCCC2', 'Rate enhancement, Cdk2 F80C', 13.67);

Continue with the compound presented below.
Rate enhancement, Cdk2 F80C lookup needed for C=CC(=O)N1CCc2cc(-c3cccc(F)c3)ccc21 , thanks.
0.4287

---

target: human cyclin-dependent kinase 2 (Cdk2) (Homo sapiens); construct: poly-histidine; made in house; host or cells: E. coli; test: Kinetic thiol consumption assay with wild type Cdk2 (C177); format: binding; settings: model thiol glutathione
Use Yes when the recorded k(Cdk2)/k(GSH) rate enhancement is no lower than 1; use No when it is lower.

INSERT INTO measurements (molecule, system, categorylabel) VALUES
  ('C=CC(=O)NCCCN(C(=O)C1CCC1)C1CC1', 'human cyclin-dependent kinase 2 (Cdk2) (Homo sapiens)', 'No'),
  ('C=CC(=O)N1CC2CC2C1 (stereo not shown)', 'human cyclin-dependent kinase 2 (Cdk2) (Homo sapiens)', 'No'),
  ('C=CC(=O)N1CCCCCC1c1cccs1 (stereo not shown)', 'human cyclin-dependent kinase 2 (Cdk2) (Homo sapiens)', 'No');

Decide: is the reported value of k(Cdk2)/k(GSH) rate enhancement for C=CC(=O)N(c1ccc2c(c1)OCCO2)C1CC1 equal to or greater than 1?
Yes

Decide: is the reported value of k(Cdk2)/k(GSH) rate enhancement for C=CC(=O)Nc1cccc(-c2cc3ccccc3[nH]2)c1 equal to or greater than 1?
No

Decide: is the reported value of k(Cdk2)/k(GSH) rate enhancement for C=CC(=O)N1CCN(Cc2ccc(Cl)cc2)CC1 equal to or greater than 1?
No

Decide: is the reported value of k(Cdk2)/k(GSH) rate enhancement for C=CC(=O)N(C)C1C2CCOC2C1(C)C (stereo not shown) equal to or greater than 1?
Yes

Decide: is the reported value of k(Cdk2)/k(GSH) rate enhancement for C=CC(=O)NCCNC(=O)c1ccccc1 equal to or greater than 1?
Yes

Decide: is the reported value of k(Cdk2)/k(GSH) rate enhancement for C=CC(=O)N1CCCC(C(=O)OCC)C1 (stereo not shown) equal to or greater than 1?
No

Decide: is the reported value of k(Cdk2)/k(GSH) rate enhancement for C=CC(=O)Nc1[nH]nc(C2CC2)c1-c1ccc2c(c1)OCO2 equal to or greater than 1?
Yes
